Measured values drawn from patent US10308639B2 for this set.

# target-or-system: PI3Kβ (Homo sapiens, UniProt P42338)
# Construct: made in house
# Sequence (P42338 whole entry): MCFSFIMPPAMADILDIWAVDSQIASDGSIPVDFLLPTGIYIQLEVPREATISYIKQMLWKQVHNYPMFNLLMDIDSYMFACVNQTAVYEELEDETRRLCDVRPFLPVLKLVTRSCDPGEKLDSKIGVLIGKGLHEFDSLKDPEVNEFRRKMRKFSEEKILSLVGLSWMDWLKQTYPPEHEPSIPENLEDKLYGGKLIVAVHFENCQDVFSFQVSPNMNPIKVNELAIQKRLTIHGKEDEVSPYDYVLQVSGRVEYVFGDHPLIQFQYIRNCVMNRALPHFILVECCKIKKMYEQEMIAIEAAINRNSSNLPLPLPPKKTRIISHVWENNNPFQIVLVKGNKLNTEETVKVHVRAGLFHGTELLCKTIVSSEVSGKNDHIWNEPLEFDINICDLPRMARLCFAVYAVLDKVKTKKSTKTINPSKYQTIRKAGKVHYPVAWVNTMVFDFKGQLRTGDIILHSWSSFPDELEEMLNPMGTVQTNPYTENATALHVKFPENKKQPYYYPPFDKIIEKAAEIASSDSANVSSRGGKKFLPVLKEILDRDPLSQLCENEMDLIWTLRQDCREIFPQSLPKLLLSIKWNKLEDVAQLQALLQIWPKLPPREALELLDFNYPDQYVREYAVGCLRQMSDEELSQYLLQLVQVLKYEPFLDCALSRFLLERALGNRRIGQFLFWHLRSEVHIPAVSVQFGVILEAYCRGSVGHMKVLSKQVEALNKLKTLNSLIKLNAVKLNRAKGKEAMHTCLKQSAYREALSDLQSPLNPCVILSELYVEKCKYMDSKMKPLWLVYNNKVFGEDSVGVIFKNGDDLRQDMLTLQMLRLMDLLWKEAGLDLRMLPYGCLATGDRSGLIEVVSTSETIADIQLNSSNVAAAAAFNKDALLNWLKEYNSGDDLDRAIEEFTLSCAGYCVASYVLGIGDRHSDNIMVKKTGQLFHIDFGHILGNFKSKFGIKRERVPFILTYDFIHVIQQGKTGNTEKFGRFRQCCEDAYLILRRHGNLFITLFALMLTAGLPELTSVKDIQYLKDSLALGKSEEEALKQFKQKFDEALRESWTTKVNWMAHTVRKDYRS
# Sequence (P27986 whole entry partner): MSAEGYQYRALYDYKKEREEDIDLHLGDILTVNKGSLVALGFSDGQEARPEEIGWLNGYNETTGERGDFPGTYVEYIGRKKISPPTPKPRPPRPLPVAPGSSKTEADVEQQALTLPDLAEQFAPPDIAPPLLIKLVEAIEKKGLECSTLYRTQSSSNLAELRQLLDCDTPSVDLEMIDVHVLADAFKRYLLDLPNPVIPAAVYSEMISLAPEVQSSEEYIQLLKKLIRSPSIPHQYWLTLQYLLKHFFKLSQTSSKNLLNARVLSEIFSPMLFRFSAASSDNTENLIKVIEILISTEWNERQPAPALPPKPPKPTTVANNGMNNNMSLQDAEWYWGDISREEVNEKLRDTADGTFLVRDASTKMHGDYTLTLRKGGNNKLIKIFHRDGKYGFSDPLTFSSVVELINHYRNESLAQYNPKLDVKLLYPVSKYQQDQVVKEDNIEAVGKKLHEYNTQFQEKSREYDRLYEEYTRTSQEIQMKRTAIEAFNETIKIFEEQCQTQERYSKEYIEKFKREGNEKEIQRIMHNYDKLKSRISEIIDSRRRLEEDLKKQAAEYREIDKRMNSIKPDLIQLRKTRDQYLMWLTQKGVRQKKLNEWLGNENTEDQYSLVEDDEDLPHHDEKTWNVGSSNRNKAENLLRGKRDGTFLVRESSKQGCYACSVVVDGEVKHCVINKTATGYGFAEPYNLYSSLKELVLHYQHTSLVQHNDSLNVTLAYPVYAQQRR
# experiment-summary: TR-FRET enzymatic activity assay, PI3Kβ
# Format: biochemical
# assay-setup: Table 2a; same assay
Parameter: IC50. Scope: all listed entries.

smiles-data | target-or-system | IC50
C[C@H](Nc1nc(N)nc(C(F)F)c1C#N)c1nc2cccc(Cl)c2c(=O)n1-c1cc[nH]n1 | PI3Kβ (Homo sapiens, UniProt P42338) | 16 nM
C[C@H](Nc1nc(N)nc(C(F)F)c1C#N)c1nc2c(F)ccc(F)c2c(=O)n1-c1cc[nH]n1 | PI3Kβ (Homo sapiens, UniProt P42338) | 62 nM
N#Cc1c(N)nc(N)nc1N[C@H](c1nc2c(Cl)cc(F)cc2c(=O)n1-c1cc[nH]n1)C1CCC1 | PI3Kβ (Homo sapiens, UniProt P42338) | 4 nM
C[C@H](Nc1nc(N)nc(N)c1C#N)c1nc2c(Cl)ccc(Cl)c2c(=O)n1-c1cn[nH]c1 | PI3Kβ (Homo sapiens, UniProt P42338) | 0.6 nM
C[C@H](Nc1nc(N)nc(N)c1Cl)c1nc2ccc(F)c(Cl)c2c(=O)n1-c1cn[nH]c1 | PI3Kβ (Homo sapiens, UniProt P42338) | 190 nM
Nc1nc(N)c(Cl)c(N[C@H](c2nc3c(C(F)F)cc(F)cc3c(=O)n2-c2cc[nH]n2)C2CC2)n1 | PI3Kβ (Homo sapiens, UniProt P42338) | 130 nM
Cc1n[nH]cc1-n1c([C@H](C)Nc2nc(N)nc(N)c2C#N)nc2c(Cl)ccc(Cl)c2c1=O | PI3Kβ (Homo sapiens, UniProt P42338) | 6 nM
